Origin of values: PubChem BioAssay (Tox21)

Molecular target: Cytochrome P450 2C19 (Homo sapiens) (UniProt P33261)
Sequence (P33261 whole entry, looked up): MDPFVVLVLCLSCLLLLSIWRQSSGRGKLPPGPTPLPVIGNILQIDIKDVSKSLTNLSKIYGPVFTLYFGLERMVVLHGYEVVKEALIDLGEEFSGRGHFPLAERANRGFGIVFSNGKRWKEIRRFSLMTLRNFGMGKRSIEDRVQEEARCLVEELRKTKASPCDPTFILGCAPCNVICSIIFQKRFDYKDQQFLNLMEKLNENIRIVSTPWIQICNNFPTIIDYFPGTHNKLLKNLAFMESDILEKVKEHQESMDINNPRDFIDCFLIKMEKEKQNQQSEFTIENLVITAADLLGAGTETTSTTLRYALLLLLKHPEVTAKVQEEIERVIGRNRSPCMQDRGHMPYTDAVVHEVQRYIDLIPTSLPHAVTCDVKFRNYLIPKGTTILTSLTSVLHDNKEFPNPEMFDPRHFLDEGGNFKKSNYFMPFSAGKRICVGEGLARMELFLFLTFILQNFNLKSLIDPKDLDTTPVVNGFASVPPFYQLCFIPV
Test: Cytochrome P450 Family 2 Subfamily C Member 19 (CYP2C19) small molecule antagonists: luciferase reporter qHTS assay (AID 1671197); also: nearly all actives have a fitted effect of over 65% in size
Conditions: P450-Glo CYP2C19 enzyme, luciferin luminescence, 1 h; series mostly up to 115 µM
Inconclusive results are not listed. The source made the active and inactive calls. Calls follow the shape of the dose curve; as a rule, active = well fitted inhibition curve with a large enough effect in the repeat runs; inconclusive = weak or mixed curves; inactive = no such curve, though single readings can be large or run the other way.
Outcomes: 1.0 for active, 0.0 for inactive

> print(dat)
                                   molecule                            assayed.system  assigned.category
1        Cc1cc2nc3ccc(=[N+](C)C)cc-3sc2cc1N  Cytochrome P450 2C19 (Homo sapiens) (UniProt P33261)                1.0
2                    CCOC(=O)CC(=O)C(=O)OCC  Cytochrome P450 2C19 (Homo sapiens) (UniProt P33261)                1.0
3  COCCOC(=O)C1=C(C)NC(C)=C(C(=O)OC/C=C/c2ccccc2)C1c1cccc([N+](=O)[O-])c1 (stereo not drawn)  Cytochrome P450 2C19 (Homo sapiens) (UniProt P33261)                1.0
4  CCC(C(=O)OCCN(CC)CC)c1ccccc1 (stereo not drawn)  Cytochrome P450 2C19 (Homo sapiens) (UniProt P33261)                0.0
5                              OCCSc1ccccc1  Cytochrome P450 2C19 (Homo sapiens) (UniProt P33261)                0.0
6  O=C(N[C@@H](c1ccccc1)[C@@H]1CCCCN1)c1cccc(C(F)(F)F)c1Cl  Cytochrome P450 2C19 (Homo sapiens) (UniProt P33261)                1.0
7             O=S(=O)(c1ccccc1)c1ccc(Cl)cc1  Cytochrome P450 2C19 (Homo sapiens) (UniProt P33261)                1.0
8      C[Si](NC1CCCCC1)(NC1CCCCC1)NC1CCCCC1  Cytochrome P450 2C19 (Homo sapiens) (UniProt P33261)                0.0

====

Test: Caspase-3/7 induction in HepG2 cells by small molecules, qHTS cell viability counter screen (AID 1346981); also: nearly all actives have a fitted effect of over 30% in size
Conditions: CellTiter-Fluor fluorescence, 17 h; series mostly up to 92.4 µM
Records with an inconclusive call do not appear. Active and inactive are the calls of the source. The call rests on the fitted dose curve; in most records, active means well fitted cell-killing curve with a large enough effect in the repeat runs; inconclusive means weak or mixed curves, or effect the other way; inactive means flat fitted curve, though single readings scatter.
Labels: true (1) (active), false (0) (inactive)

> print(dat)
                                   molecule  assigned.category
1  CCn1cc(C(=O)O)c(=O)c2cc(F)c(N3CCNCC3)nc21          false (0)
2  C[C@@H]1C[C@H]2[C@@H]3CCC4=CC(=O)C=C[C@]4(C)[C@@]3(F)[C@@H](O)C[C@]2(C)[C@@]1(O)C(=O)CO          false (0)
3                               CC(C)C(=O)O          false (0)
4  CCCCC1C(=O)N(c2ccccc2)N(c2ccc(O)cc2)C1=O (stereo unspecified)           true (1)
5  N#C/C(=C1\SCC(c2ccccc2Cl)S1)n1ccnc1 (stereo unspecified)          false (0)
6     CCn1nc(C)c2c1C(=O)NCC(c1ccc(O)cc1)=N2          false (0)
